- Study system: human IKK-2 (rhIKK-2 homodimer) (Homo sapiens, UniProt O14920)
- Construct: FLAG (DYKDDDDKD) (C); made in house; host or cells: insect cells (baculovirus, pFastBac)
- Sequence (O14920 whole entry): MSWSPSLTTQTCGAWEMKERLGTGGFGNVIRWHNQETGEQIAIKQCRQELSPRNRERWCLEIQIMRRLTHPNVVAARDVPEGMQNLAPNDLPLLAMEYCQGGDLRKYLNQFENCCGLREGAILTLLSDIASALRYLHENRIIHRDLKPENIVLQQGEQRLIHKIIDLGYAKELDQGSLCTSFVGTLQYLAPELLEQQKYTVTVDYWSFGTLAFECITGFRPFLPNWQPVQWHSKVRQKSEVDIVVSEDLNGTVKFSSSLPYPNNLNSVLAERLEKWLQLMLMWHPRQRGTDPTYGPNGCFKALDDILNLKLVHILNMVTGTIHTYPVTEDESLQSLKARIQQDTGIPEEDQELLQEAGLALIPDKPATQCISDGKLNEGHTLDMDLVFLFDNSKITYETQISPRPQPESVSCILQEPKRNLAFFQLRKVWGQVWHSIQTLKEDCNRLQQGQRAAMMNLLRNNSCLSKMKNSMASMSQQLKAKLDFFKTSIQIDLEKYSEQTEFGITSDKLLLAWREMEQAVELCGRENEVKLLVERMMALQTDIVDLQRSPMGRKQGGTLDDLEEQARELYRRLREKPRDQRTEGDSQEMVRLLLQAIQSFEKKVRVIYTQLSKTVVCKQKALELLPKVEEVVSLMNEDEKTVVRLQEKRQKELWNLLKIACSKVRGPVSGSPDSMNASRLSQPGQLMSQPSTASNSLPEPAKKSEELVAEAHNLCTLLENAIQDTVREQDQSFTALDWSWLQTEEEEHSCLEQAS
- Assay protocol: IKK-2 Resin Enzyme Assay (Human IKK-2 Enzyme Assay)
- Format: biochemical
- Test context: human IKK-2, resin enzyme assay; read-out: IC50 (μM) hIKK-2
Reported property: IC50 (µM)

{"columns": ["Compound", "Study system", "Qual", "Obs value"],
 "data": [
  ["NC(=O)Nc1cn(-c2ccc(S(=O)(=O)C3CCCC3)cc2)nc1C(N)=O [Example 287]", "human IKK-2 (rhIKK-2 homodimer) (Homo sapiens, UniProt O14920)", "=", 0.187],
  ["CC(C)Cc1ccc(-c2ccc(-n3cc(C(N)=O)c(NC(N)=O)n3)cc2)cc1 [Example 127]", "human IKK-2 (rhIKK-2 homodimer) (Homo sapiens, UniProt O14920)", ">", 20],
  ["NC(=O)Nc1cn(-c2cccc(-c3ccccc3-c3ccccc3)c2)nc1C(N)=O [Example 371]", "human IKK-2 (rhIKK-2 homodimer) (Homo sapiens, UniProt O14920)", "=", 1.09]
]}
